Source: paper PMC9430930

test system: NupR (NagR2) (Bacillus thuringiensis BMB171), ORF:032de0b7; assay: EMSA; conditions: NupR: 10 mM Tris-HCl pH 7.5, 50 mM NaCl, 0.5 mM DTT, 4% glycerol, 200 ng poly(dI-dC), 25 C 30 min, ComK/CcpA/PurR: 10 mM Tris-HCl pH 8.0, 50 mM KCl
value kind: binding

- sequence data: "CGCATTTCAATTATTCGACCTCTGATGTAAGACTTCTTTTCTCTTTTTTCAACTTACAACATAGTACAAATGACTAAACACCAAAATAAGTGTAATTGTCGAATAAATAATAATAATTTTTTAAAATAAAATTTTCACTCTTTATTGCATAAAAAAAACTTTGCACCATAAACATTCCTCATTTCGAGAAAAAGTTCGGCACAAAGATCCTTTACATCCTTTGTTACACACTTTTCCCCTCATAGTCTAGCAATTCATGGTTGCC (double strand) [nagR2 (nupR) promoter]"
  tested system: "NupR (NagR2) (Bacillus thuringiensis BMB171), ORF:032de0b7"
  measured: "binds"
